# System: 966289-007-R4-J1-PDC complex spheroid viability;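 note: spheroids exposed to agents for one week before readout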
# method description: Anticancer human tumor 966289-007-R4-J1-PDC patient-derived pancreatic adenocarcinoma cell line growth inhibition [RAS]
# conditions: curve of first compound; second compound 0.003 µM
Examples of compounds with documented IC50 follow.

[[record]]
compound = "CC(=O)OC12COC1CC(O)C1(C)C(=O)C(O)C3=C(C)C(OC(=O)C(O)C(NC(=O)OC(C)(C)C)c4ccccc4)CC(O)(C(OC(=O)c4ccccc4)C21)C3(C)C (stereo not given) + CCn1c(-c2cc(N3CCN(C)CC3)cnc2C(C)OC)c2c3cc(ccc31)-c1csc(n1)CC(NC(=O)C1CC1C)C(=O)N1CCCC(N1)C(=O)OCC(C)(C)C2"
measurement_kind = "IC50"
result = "< 31.6 nM"


query: Please report the measured IC50 for C=CC(=O)N1CCN(c2nc(OCC3CCCN3C)nc3c(F)c(-c4nc(N)cc(C)c4C(F)(F)F)c(Cl)cc23)C(C)C1 (stereo not given) + CCn1c(-c2cccnc2C(C)OC)c2c3cc(ccc31)N1CCOC(CC(NC(=O)C(C(C)C)N(C)C(=O)C3(F)CCN(C(=O)C#CC(C)(C)N(C)C)CC3)C(=O)N3CCCC(N3)C(=O)OCC(C)(C)C2)C1 tested on 966289-007-R4-J1-PDC complex spheroid viability.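 Note: spheroids exposed to agents for one week before readout.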
result: > 1000 nM

query: Jot down IC50 (966289-007-R4-J1-PDC complex spheroid viability) of C=CC(=O)N1CCN(c2nc(OCC3CCCN3C)nc3c(F)c(-c4nc(N)cc(C)c4C(F)(F)F)c(Cl)cc23)C(C)C1 (stereo not given) + CCn1c(-c2cc(N3CCN(C)CC3)cnc2C(C)OC)c2c3cc(ccc31)-c1csc(n1)CC(NC(=O)C1CC1C)C(=O)N1CCCC(N1)C(=O)OCC(C)(C)C2 .
result: > 1000 nM

query: State IC50 (966289-007-R4-J1-PDC complex spheroid viability) of C[C@@H](NC(=O)c1ncnc(N)c1Cl)c1ncc(C(=O)Nc2cc(C(F)(F)F)c(Cl)cn2)s1 + CCn1c(-c2cc(N3CCN(C)CC3)cnc2C(C)OC)c2c3cc(ccc31)-c1csc(n1)CC(NC(=O)C1CC1C)C(=O)N1CCCC(N1)C(=O)OCC(C)(C)C2 .
result: > 10000 nM

query: Fill: IC50 (966289-007-R4-J1-PDC complex spheroid viability) for this compound CC1(O)CCCC1n1c(=O)c(C(F)F)cc2cnc(NC3CCN(S(C)(=O)=O)CC3)nc21 (stereo not given) + CCn1c(-c2cc(N3CCN(C)CC3)cnc2C(C)OC)c2c3cc(ccc31)-c1csc(n1)CC(NC(=O)C1CC1C)C(=O)N1CCCC(N1)C(=O)OCC(C)(C)C2
result: 120 nM

query: Tell me IC50 of CC(Nc1ccc2c(c1)OCCn1cc(N3C(=O)OCC3C(F)F)nc1-2)C(N)=O (stereo not given) + CCn1c(-c2cc(N3CCN(C)CC3)cnc2C(C)OC)c2c3cc(ccc31)-c1csc(n1)CC(NC(=O)C1CC1C)C(=O)N1CCCC(N1)C(=O)OCC(C)(C)C2 when tested on 966289-007-R4-J1-PDC complex spheroid viability.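 Note: spheroids exposed to agents for one week before readout.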
result: > 10000 nM

query: Give reported IC50 for O=C(c1ccc(F)c(F)c1Nc1ccc(I)cc1F)N1CC(O)([C@@H]2CCCCN2)C1 + CCn1c(-c2cc(N3CCN(C)CC3)cnc2C(C)OC)c2c3cc(ccc31)-c1csc(n1)CC(NC(=O)C1CC1C)C(=O)N1CCCC(N1)C(=O)OCC(C)(C)C2 (966289-007-R4-J1-PDC complex spheroid viability)
result: 596 nM
